FYI, the data here is from ChEMBL document CHEMBL3872266.

assay_comment: Inhibition of rice alpha-glucosidase assessed as reduction in production of D-glucose using disaccharides as substrate incubated for 10 to 30 mins
Design: species or system Oryza sativa
recorded_metric: IC50 (nM)
Write the value in nM as a bare number.

Here is how some compounds turned out for IC50.
- O=c1ccc2nc3ccc(OCCCCn4cc(CCCCN5C[C@H](O)[C@@H](O)[C@H](O)[C@H]5CO)nn4)cc3oc-2c1: 2100
- Cc1cc(=O)oc2cc(OCCCCn3cc(CCCCN4C[C@H](O)[C@@H](O)[C@H](O)[C@H]4CO)nn3)ccc12: 42

Note: attention shifts to another entry.
Q: Quickly give me recorded IC50 for CCN(CC)c1ccc2cc(C(=O)NCCOCCOCCOCCn3cc(CCCCN4C[C@H](O)[C@@H](O)[C@H](O)[C@H]4CO)nn3)c(=O)oc2c1
Result: 110

====

assay_comment: Inhibition of rice alpha-glucosidase assessed as reduction in production of D-glucose using disaccharides as substrate incubated for 10 to 30 mins
Set-up: species or system Oryza sativa
Reported pIC50 values for a set of compounds
// returns pIC50 (minus log10 of molar concentration), number only

Here is how some compounds turned out for pIC50.
• OC[C@H]1NC[C@H](O)[C@@H](O)[C@@H]1O [DUVOGLUSTAT] = 7.30
• O=c1cc(C(F)(F)F)c2ccc(OCCCCn3cc(CCCCN4C[C@H](O)[C@@H](O)[C@H](O)[C@H]4CO)nn3)cc2o1 = 7.24
• CN(C)c1cccc2c(S(=O)(=O)NCCOCCn3cc(CCCCN4C[C@H](O)[C@@H](O)[C@H](O)[C@H]4CO)nn3)cccc12 = 7.04

Note: attention shifts to another entry.
Q: Quickly give me recorded pIC50 for OCCN1C[C@H](O)[C@@H](O)[C@H](O)[C@H]1CO [MIGLITOL]
Result: 7.00

====

assayed_system: Sucrase-isomaltase, intestinal (Rattus norvegicus)
Sequence (P23739 1-1013 limits assumed): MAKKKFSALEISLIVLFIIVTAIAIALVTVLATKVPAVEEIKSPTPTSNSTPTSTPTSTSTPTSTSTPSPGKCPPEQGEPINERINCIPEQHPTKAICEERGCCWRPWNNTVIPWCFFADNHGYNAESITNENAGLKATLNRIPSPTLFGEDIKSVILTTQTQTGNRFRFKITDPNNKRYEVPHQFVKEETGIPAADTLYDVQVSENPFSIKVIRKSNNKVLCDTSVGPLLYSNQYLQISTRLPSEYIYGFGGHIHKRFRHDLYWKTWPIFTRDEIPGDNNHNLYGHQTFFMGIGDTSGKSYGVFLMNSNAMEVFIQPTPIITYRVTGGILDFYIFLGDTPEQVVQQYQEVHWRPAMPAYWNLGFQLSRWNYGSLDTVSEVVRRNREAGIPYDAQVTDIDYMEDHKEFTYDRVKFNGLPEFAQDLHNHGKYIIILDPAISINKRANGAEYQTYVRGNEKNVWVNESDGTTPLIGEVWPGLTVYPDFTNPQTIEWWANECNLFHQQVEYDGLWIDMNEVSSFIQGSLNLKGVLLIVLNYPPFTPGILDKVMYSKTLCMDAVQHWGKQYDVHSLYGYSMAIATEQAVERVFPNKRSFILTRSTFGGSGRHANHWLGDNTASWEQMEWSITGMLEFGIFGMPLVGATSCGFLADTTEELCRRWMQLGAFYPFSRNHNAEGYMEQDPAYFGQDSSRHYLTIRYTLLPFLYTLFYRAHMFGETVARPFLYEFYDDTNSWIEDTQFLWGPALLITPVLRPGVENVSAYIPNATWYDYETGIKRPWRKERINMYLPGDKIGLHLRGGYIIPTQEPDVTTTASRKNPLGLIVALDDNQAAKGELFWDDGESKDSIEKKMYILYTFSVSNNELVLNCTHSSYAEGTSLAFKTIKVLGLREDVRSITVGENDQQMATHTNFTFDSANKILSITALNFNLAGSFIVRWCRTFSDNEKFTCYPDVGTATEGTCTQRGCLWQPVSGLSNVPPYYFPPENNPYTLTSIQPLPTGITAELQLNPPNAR
Sequence (P23739 1014-1841 limits assumed): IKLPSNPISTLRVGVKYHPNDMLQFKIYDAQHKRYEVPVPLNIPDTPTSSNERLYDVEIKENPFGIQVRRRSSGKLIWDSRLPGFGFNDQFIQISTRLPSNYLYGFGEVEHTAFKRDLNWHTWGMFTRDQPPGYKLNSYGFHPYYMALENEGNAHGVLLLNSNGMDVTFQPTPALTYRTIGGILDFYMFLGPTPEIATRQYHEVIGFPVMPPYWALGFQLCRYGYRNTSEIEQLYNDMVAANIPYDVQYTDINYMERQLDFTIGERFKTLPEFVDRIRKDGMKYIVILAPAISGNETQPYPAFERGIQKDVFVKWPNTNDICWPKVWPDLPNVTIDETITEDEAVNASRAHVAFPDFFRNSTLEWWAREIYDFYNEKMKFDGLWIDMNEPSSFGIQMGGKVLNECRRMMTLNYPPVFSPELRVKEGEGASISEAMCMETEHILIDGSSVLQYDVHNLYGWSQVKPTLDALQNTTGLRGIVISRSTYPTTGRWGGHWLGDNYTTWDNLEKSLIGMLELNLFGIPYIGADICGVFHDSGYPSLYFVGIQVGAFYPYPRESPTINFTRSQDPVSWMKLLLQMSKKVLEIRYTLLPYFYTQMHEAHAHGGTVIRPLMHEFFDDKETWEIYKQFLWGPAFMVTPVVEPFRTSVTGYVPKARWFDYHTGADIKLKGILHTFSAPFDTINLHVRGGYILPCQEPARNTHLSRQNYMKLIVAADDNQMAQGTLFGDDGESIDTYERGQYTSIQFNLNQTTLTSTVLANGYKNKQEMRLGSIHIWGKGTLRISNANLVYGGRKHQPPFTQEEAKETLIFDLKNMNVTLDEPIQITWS
assay_comment: Inhibition of rat small intestinal brush border membrane isomaltase assessed as reduction in production of D-glucose using disaccharides as substrate incubated for 10 to 30 mins
recorded_metric: pIC50
// returns pIC50 (minus log10 of molar concentration), number only

Here is how some molecules turned out for pIC50.
- O=c1cc(C(F)(F)F)c2ccc(OCCCCn3cc(CCCCN4C[C@H](O)[C@@H](O)[C@H](O)[C@H]4CO)nn3)cc2o1: 5.39
- Cc1cc(=O)oc2cc(OCCCCn3cc(CCCCN4C[C@H](O)[C@@H](O)[C@H](O)[C@H]4CO)nn3)ccc12: 5.85
- O=c1ccc2nc3ccc(OCCCCn4cc(CCCCN5C[C@H](O)[C@@H](O)[C@H](O)[C@H]5CO)nn4)cc3oc-2c1: 5.20
- CN(C)c1cccc2c(S(=O)(=O)NCCOCCn3cc(CCCCN4C[C@H](O)[C@@H](O)[C@H](O)[C@H]4CO)nn3)cccc12: 5.34

Note: attention shifts to another entry.
Q: State recorded pIC50 with Sucrase-isomaltase, intestinal (Rattus norvegicus), entry CCN(CC)c1ccc2cc(C(=O)NCCOCCOCCOCCn3cc(CCCCN4C[C@H](O)[C@@H](O)[C@H](O)[C@H]4CO)nn3)c(=O)oc2c1 , no comment.
Result: 4.87

====

assay_comment: Inhibition of rat small intestinal brush border membrane cellobiase assessed as reduction in production of D-glucose using disaccharides as substrate incubated for 10 to 30 mins
Threshold-based label: IC50 under 200 µM gives label 1, IC50 not under 200 µM gives label 0.

* OCCN1C[C@H](O)[C@@H](O)[C@H](O)[C@H]1CO [MIGLITOL] | label 1
* CN(C)c1cccc2c(S(=O)(=O)NCCOCCn3cc(CCCCN4C[C@H](O)[C@@H](O)[C@H](O)[C@H]4CO)nn3)cccc12 | label 0
* CCN(CC)c1ccc2cc(C(=O)NCCOCCOCCOCCn3cc(CCCCN4C[C@H](O)[C@@H](O)[C@H](O)[C@H]4CO)nn3)c(=O)oc2c1 | label 0
* O=c1cc(C(F)(F)F)c2ccc(OCCCCn3cc(CCCCN4C[C@H](O)[C@@H](O)[C@H](O)[C@H]4CO)nn3)cc2o1 | label 0
* Cc1cc(=O)oc2cc(OCCCCn3cc(CCCCN4C[C@H](O)[C@@H](O)[C@H](O)[C@H]4CO)nn3)ccc12 | label 1
* O=c1ccc2nc3ccc(OCCCCn4cc(CCCCN5C[C@H](O)[C@@H](O)[C@H](O)[C@H]5CO)nn4)cc3oc-2c1 | label 1

API: the following record is the query input.
Q: I'd appreciate it if you could check whether OC[C@H]1NC[C@H](O)[C@@H](O)[C@@H]1O [DUVOGLUSTAT] has IC50 smaller than 200 µM.
Result: label 0

====

assayed_system: Sucrase-isomaltase, intestinal (Rattus norvegicus)
assay_comment: Inhibition of rat small intestinal brush border membrane sucrase assessed as reduction in production of D-glucose using disaccharides as substrate incubated for 10 to 30 mins
Reported IC50 values for a set of compounds
Write the value in µM as a bare number.

Here is how some compounds turned out for IC50.
* Cc1cc(=O)oc2cc(OCCCCn3cc(CCCCN4C[C@H](O)[C@@H](O)[C@H](O)[C@H]4CO)nn3)ccc12 | 0.54
* CCN(CC)c1ccc2cc(C(=O)NCCOCCOCCOCCn3cc(CCCCN4C[C@H](O)[C@@H](O)[C@H](O)[C@H]4CO)nn3)c(=O)oc2c1 | 1.4

Q: Quickly give me recorded IC50 for O=c1ccc2nc3ccc(OCCCCn4cc(CCCCN5C[C@H](O)[C@@H](O)[C@H](O)[C@H]5CO)nn4)cc3oc-2c1
Result: 2.7

Q: Quickly give me recorded IC50 for O=c1cc(C(F)(F)F)c2ccc(OCCCCn3cc(CCCCN4C[C@H](O)[C@@H](O)[C@H](O)[C@H]4CO)nn3)cc2o1
Result: 0.95

Q: Quickly give me recorded IC50 for CN(C)c1cccc2c(S(=O)(=O)NCCOCCn3cc(CCCCN4C[C@H](O)[C@@H](O)[C@H](O)[C@H]4CO)nn3)cccc12
Result: 1.9

====

assay_comment: Inhibition of rat small intestinal brush border membrane maltase assessed as reduction in production of D-glucose using maltose as substrate incubated for 10 to 30 mins
recorded_metric: pIC50
// returns pIC50 (minus log10 of molar concentration), number only

Here is how some compounds turned out for pIC50.
• O=c1cc(C(F)(F)F)c2ccc(OCCCCn3cc(CCCCN4C[C@H](O)[C@@H](O)[C@H](O)[C@H]4CO)nn3)cc2o1 = 6.27
• CCN(CC)c1ccc2cc(C(=O)NCCOCCOCCOCCn3cc(CCCCN4C[C@H](O)[C@@H](O)[C@H](O)[C@H]4CO)nn3)c(=O)oc2c1 = 7.00
• Cc1cc(=O)oc2cc(OCCCCn3cc(CCCCN4C[C@H](O)[C@@H](O)[C@H](O)[C@H]4CO)nn3)ccc12 = 6.82
• CN(C)c1cccc2c(S(=O)(=O)NCCOCCn3cc(CCCCN4C[C@H](O)[C@@H](O)[C@H](O)[C@H]4CO)nn3)cccc12 = 6.04
• O=c1ccc2nc3ccc(OCCCCn4cc(CCCCN5C[C@H](O)[C@@H](O)[C@H](O)[C@H]5CO)nn4)cc3oc-2c1 = 6.19

Note: attention shifts to another entry.
Q: Quickly give me recorded pIC50 for OCCN1C[C@H](O)[C@@H](O)[C@H](O)[C@H]1CO
Result: 6.23

====

assay_comment: Inhibition of almond beta-glucosidase assessed as reduction in production of D-glucose using disaccharides as substrate incubated for 10 to 30 mins
Set-up: species or system Prunus dulcis
pIC50: −log10 of the molar value.
Returns Satisfied if the recorded pIC50 is greater than or equal to 5, and Not satisfied otherwise.

Q: I'd appreciate it if you could say whether CN(C)c1cccc2c(S(=O)(=O)NCCOCCn3cc(CCCCN4C[C@H](O)[C@@H](O)[C@H](O)[C@H]4CO)nn3)cccc12 has pIC50 at least equal to 5.
Result: Not satisfied

====

Reported IC50 values for a set of molecules
assay_comment: Inhibition of almond beta-glucosidase assessed as reduction in production of D-glucose using disaccharides as substrate incubated for 10 to 30 mins
Parameters: species or system Prunus dulcis

Here is how some molecules turned out for IC50.
• OC[C@H]1NC[C@H](O)[C@@H](O)[C@@H]1O = 85 µM
• OCCN1C[C@H](O)[C@@H](O)[C@H](O)[C@H]1CO = 378 µM
• O=c1cc(C(F)(F)F)c2ccc(OCCCCn3cc(CCCCN4C[C@H](O)[C@@H](O)[C@H](O)[C@H]4CO)nn3)cc2o1 = 3.8 µM

Q: Quickly give me recorded IC50 for Cc1cc(=O)oc2cc(OCCCCn3cc(CCCCN4C[C@H](O)[C@@H](O)[C@H](O)[C@H]4CO)nn3)ccc12
Result: 9.3 µM
